Attribution: patent US20120189579A1

Parameter: melting point. Scope: all listed entries.
Give the value in °C but do not write °C after it.

// solved cases for melting point follow
MOLECULE	UNIT_TAG	melting point
CC(C)c1ccc(C(=O)C2=C(O)C(=O)N(c3ncc(Sc4ccc([N+](=O)[O-])cc4)s3)C2c2ccc(OC(F)(F)F)cc2)cc1 (stereo not shown)	°C	238
COc1ccc(C(=O)C2=C(O)C(=O)N(c3nnc(C)s3)C2c2ccc(O)cc2)cc1 (stereo not shown)	°C	251

Switching to the query record.
Q. I have this molecule here, COc1ccc(C(=O)C2=C(O)C(=O)N(c3nnc(C)s3)C2c2cccc(C(=O)O)c2)cc1 (stereo not shown) , and I need its recorded melting point.
A. 281
